Recorded values, source paper PMC10120551.

# test.target: recombinant hDHFR (Homo sapiens)
# Sequence (P00374 whole entry): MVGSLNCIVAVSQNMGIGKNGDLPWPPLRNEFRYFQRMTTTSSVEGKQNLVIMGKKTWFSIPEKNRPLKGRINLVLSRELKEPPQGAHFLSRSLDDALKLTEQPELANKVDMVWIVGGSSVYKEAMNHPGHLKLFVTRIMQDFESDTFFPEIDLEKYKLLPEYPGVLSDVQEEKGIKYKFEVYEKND
# run.description: DHFR inhibitory assay
pIC50: −log10 of the molar value.
measured.metric: pIC50

CCOC(=O)CC[C@H](NC(=O)c1ccc(NC(=O)Cn2cnc3c(c(C)nn3-c3ccc(Br)cc3)c2=O)cc1)C(=O)OCC ... 5.62

====

# Test system: OVCAR-3 (Ovarian Cancer)
# run.description: MTT cytotoxicity assay
# Format: cell-based, human
# reported.conditions: OVCAR-3; MTT, 48 h; mean ± SD from triplicates
measured.metric: IC50

CCOC(=O)CC[C@H](NC(=O)c1ccc(NC(=O)Cn2cnc3c(c(C)nn3-c3ccc(Br)cc3)c2=O)cc1)C(=O)OCC ... 11.5 µM

====

# Tested on: OVCAR-3 (Ovarian Cancer)
# run.description: MTT cytotoxicity assay
# Format: cell-based, human
# reported.conditions: Homo sapiens, OVCAR-3, 48 h, OVCAR-3; MTT, 48 h; mean ± SD from triplicates
# Protocol: The MTT assay was carried out according to the procedure cited earlier. […] The absorbance was read using a Bioline plate reader at λ570–630 nm[25–29]. The selectivity of 6i towards HSF cells was also determined as follows[30]^,[31]: SI=IC50HSF cells/IC50of cancer cells
pIC50: −log10 of the molar value.
measured.metric: pIC50

CCOC(=O)CC[C@H](NC(=O)c1ccc(NC(=O)Cn2cnc3c(c(C)nn3-c3ccc(Br)cc3)c2=O)cc1)C(=O)OCC ... 4.94
CN(Cc1cnc2nc(N)nc(N)c2n1)c1ccc(C(=O)N[C@@H](CCC(=O)O)C(=O)O)cc1 [MTX, methotrexate, reference compound] ... 5.20
